Below: a set of entries, each annotated with reported PET hydrolysis.
Experiment: PET hydrolysis, aromatic products released after 48 h (umol product/mg enzyme); higher = more PET depolymerization activity
Conditions: substrate: cryPow; 40 °C; pH 4.5

ordered_residues: AENPYERGPAPTTASIEALRGPFATAETTVSSLSVRGFGGGTIHYPTSTAEGTFGAVAVAPGYTASQSSLSWLGPRLASQGFVVFVIDTNSRYDQPASRGDQLLAALDYLTTSSSVRGRIDASRLGVMGHSMGGGGALEATKDRPSLQASIPLTPWNTTKTWSTVRTPTLVVGAEDDSVAPVRTHAEPFYEGLPSTLDKAYLELAGASHFAPNSSNTTIAKYSIAWLKRFVDDDTRYEQFLCPAPRGTAISEYRDTCPHP [TEP110]
PET hydrolysis: < 3

ordered_residues: NPYERGPDPTTASIEASRGSFATSTVTVSRLAVSGFGGGTIYYPTTTTAGTFGAISIAPGFTATQSSMAWLGPRLASQGFVVFTIDTITTSDQPDSRGRQLLASLDYLTQQSSVRSRIDSSRLGVVGHSMGGGGTLEAARSRPSLQAAVPLTGWNLTKNWSTLRVPTLVVGAQSDTIAPVASHSIPFYTSLPSTLDRAYLELRGASHFAPNTSNTTIAKYTLSWLKRFIDNDTRYEQFLCPIPSSSLSISDYRGNCPHNG [ESM167]
PET hydrolysis: 2

ordered_residues: VEIGPNPTSTLLNGNGPFSVSSSSVSSWVSGFGGGTIYYPTASGQYGVIAVCPGYTGTSSSISWFARRLATHGFVTIAMNTNSRFDFPDSRATQLAAALNYLLNSSSSTIRSRIRTADRGVAGHSMGGGGTLRASERDSNLKVGIPLTPWHTDKTWGSLSVPQMIFGADGDTVAPASSHARTFYNSIPSSTKKAYALLNNASHFTPNSTDERIGRYGVAFAKRFVDGDTRYEPFLCGAEHSTYATSWKFDTYLSTCPYGGGSEPEPDYPWWYWWR [ESM162]
PET hydrolysis: < 3

ordered_residues: ADNPYQRGPNPTAASIAATTGPFAIASVSVARGNGFGGGVIYYPTDTSQGTFGAIAISPGLNGTWPGIAWLGPRLASQGFVVFGIETNNLNDSPTSRGTQLLAALDYLTQRSSVRTRVDATRLAVAGHSMGGGGALDAALRRPSLQAAIGNAPYLPSGNLSTDRVPTLIYAMQNDTLVPPSRLTTMYNTIPATTERGYIQITGAGHNYIGQPSTNLARTMIPWFKIFIDNDTRFSQFLCPLSNMSGISQYRNSCPLI [ESM159]
PET hydrolysis: < 3

ordered_residues: GRVMAASDSGTAADERVYAEPSVDPASVGSAGRNPYERGPEPTLASVAAEYGPFDTDQLTVPPGHGFNGGYIYYPTDTSQTFGAVAIVPGYTALFADEEAWMGPRLASFGFVVIGIETNSRDDWDIARGEQLLAALDYLVHHSPVRARIDANRLAVVGHSMGGGGALFAATQRPSLKAVVALAPYFPSGSLAAIRVPTMIIGGQDDTVVTPSYLDDLYASRPAHTPGAYLMLADADHLFATRPNTVEMRLLIPWLKIFVDHDTRYTQFLCPVADRSGIARHHVT [TEP126]
PET hydrolysis: < 3

---

Below: a set of entries, each annotated with reported PET hydrolysis.
Experiment: PET hydrolysis, aromatic products released after 48 h (umol product/mg enzyme); higher = more PET depolymerization activity
Details: substrate: cryPow; 40 °C; pH 7.5
parameter: PET hydrolysis

ordered_residues: ADNPYQRGPDPTVASVAATNGPFATAQLNVPSGNGFNGGTIYYPTDTSLGTWGAVAIVPGYTARFANEEAWMGPRLASFGFVVIGVETNSTTDWDTARGTQLLAALDYLTQKSSVRDRVDASRLAVIGHSMGGGGVVYAASQRPSLKAAIGLAPYAPSGNLSNVKVPMLIQGGQNDTVVTPSYLDGLYPTLPSSTPGAYVQYSGADHLFWTKANNIELRTQIPWLKIFLDNDTRYTQFMCPTLKDTASVAKYSAKCSLIPSAGSTTAPTTQPATSAPATTSPTTQPPSQPG [TEP083]
parameter: PET hydrolysis
reading: < 3
//
ordered_residues: ALNPYQRGPDPTDALLEAPRGPFATASTTVSRLSVSGFGGGVIYYPTDTSQGTFGGIAISPGYTASWSSLDWLGPRIASHGFVVIGIDTLSRYDQPASRGRQLLAALDYLTQRSSVRGRVDASRLAVAGHSMGGGGSLEAADSRPSLQAAVPLAPWHTTKNWSGVRVPTMIIGGESDSVAPVSTHSELFYASIPASSEKAYLELNGASHFFPNTTNTTMAKSMVSWLKRFVDDDVRYDPFLCPGPDGSAVEEYRQTCPLS [TEP140]
parameter: PET hydrolysis
reading: 4
//
ordered_residues: ADNPYQRGPDPTRTSVATERGPFANTSVSVPSGYGFNGGRIYYPTDTSQGTFGAIAISPGYTALFSAELAWMGPWLASHGFVVIGIETNSRNDFDTARGTQLLAALDYLTQQSPVRDRIDPNRLAVSGHSMGGGGALSAAMRRSSLKAVVGIAPYSPSSNLANDRVPTMIFSGQADTVVTPSYAMGLYNSIPAGTKSAYLEVAGGDHGFMVGRSNPVLIRTMLPFLKIFIDNDARYSQFLCPLLDNSGVVTYRSTCPFLPTTPTTPPPTG [ESM065]
parameter: PET hydrolysis
reading: < 3
